Molecular target: Cytochrome P450 3A4 (Homo sapiens)
Sequence (P08684 whole entry): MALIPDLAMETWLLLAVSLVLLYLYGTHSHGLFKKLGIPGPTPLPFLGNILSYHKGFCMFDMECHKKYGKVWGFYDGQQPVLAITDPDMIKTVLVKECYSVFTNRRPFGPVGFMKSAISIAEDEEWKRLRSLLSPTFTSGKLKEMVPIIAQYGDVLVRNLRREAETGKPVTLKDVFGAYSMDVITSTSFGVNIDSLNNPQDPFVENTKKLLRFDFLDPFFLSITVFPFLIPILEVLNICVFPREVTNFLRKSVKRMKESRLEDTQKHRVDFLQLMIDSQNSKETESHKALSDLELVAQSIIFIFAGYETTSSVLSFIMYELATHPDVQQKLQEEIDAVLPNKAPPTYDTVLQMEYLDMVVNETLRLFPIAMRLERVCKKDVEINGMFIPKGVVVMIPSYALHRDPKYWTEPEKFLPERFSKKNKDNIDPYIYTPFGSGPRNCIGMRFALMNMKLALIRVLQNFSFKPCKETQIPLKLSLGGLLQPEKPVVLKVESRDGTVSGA
Measurement Label: IC50

May I ask what IC50 has been recorded for N#Cc1cc(OC(F)(F)F)cc(-c2nc(-c3ccc4c(c3)cc3n4CCC3CC(=O)O)no2)c1 (single isomer, unassigned; enantiomer 2) ?
> 30 µM

----------
Biological target: Voltage-gated inwardly rectifying potassium channel KCNH2 (Homo sapiens, UniProt Q12809)
Sequence (Q12809 whole entry): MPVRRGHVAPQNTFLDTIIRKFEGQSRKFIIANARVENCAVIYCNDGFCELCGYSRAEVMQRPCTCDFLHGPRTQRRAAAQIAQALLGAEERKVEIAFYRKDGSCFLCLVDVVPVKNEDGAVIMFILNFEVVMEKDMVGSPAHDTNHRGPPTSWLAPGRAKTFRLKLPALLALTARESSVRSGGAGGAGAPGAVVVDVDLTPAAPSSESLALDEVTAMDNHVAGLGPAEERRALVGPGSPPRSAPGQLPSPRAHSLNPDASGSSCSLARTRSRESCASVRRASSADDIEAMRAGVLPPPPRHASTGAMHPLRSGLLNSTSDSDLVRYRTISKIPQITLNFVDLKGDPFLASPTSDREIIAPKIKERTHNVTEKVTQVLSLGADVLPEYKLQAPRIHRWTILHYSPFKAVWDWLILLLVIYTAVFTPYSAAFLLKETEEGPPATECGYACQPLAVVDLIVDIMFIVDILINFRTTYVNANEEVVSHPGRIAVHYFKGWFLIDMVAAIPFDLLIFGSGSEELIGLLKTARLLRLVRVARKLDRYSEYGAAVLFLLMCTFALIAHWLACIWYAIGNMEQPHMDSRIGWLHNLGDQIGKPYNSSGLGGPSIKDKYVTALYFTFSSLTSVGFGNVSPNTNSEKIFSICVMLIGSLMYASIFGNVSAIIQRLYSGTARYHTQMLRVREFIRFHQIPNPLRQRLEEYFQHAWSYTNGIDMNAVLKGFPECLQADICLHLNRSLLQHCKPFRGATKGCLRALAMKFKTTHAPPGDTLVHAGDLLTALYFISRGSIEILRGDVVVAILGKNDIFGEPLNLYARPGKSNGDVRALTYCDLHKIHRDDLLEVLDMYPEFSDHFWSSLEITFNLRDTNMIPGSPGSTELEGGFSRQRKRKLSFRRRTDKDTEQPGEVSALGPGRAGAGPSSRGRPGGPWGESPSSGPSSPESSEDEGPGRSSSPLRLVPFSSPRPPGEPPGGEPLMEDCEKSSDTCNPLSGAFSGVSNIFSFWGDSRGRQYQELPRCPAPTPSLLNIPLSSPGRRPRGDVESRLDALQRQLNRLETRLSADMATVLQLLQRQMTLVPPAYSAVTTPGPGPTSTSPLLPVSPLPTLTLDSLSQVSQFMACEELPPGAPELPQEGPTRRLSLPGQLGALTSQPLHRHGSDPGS
Experiment: Inhibition of human ERG by patch clamp assay
pIC50: −log10 of the molar value.
Measurement Label: pIC50

// lookup pIC50 | system=Voltage-gated inwardly rectifying potassium channel KCNH2 (Homo sapiens, UniProt Q12809) | key= N#Cc1cc(OC(F)(F)F)cc(-c2nc(-c3ccc4c(c3)cc3n4CCC3CC(=O)O)no2)c1 (single isomer, unassigned; enantiomer 2)
< 3.40

----------
Target: Sphingosine 1-phosphate receptor 4 (Homo sapiens, UniProt O95977)
Sequence (O95977 whole entry): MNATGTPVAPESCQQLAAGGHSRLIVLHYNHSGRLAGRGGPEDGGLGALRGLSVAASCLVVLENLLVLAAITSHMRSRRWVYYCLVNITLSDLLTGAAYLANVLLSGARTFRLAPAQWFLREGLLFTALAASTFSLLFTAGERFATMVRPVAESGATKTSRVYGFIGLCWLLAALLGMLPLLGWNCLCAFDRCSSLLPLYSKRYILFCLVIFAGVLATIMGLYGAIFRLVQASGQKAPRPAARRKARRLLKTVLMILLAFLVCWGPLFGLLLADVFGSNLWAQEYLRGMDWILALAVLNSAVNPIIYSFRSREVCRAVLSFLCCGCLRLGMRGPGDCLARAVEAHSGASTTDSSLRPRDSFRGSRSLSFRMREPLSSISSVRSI
Assay: Agonist activity against human S1P4 by beta arrestin recruitment assay
Measurement Label: pEC50
One number for each entry, as −log10 of the molar value.

N#Cc1cc(OC(F)(F)F)cc(-c2nc(-c3ccc4[nH]c5c(c4c3)CCC5CC(=O)O)no2)c1 (stereo in doubt; 17a) :: 6.62

As a next step, examine the compound that follows.
May I ask what pEC50 has been recorded for N#Cc1cc(OC(F)(F)F)cc(-c2nc(-c3ccc4[nH]c5c(c4c3)CCC5CC(=O)O)no2)c1 (single isomer, unassigned) ?
6.34

Values from ChEMBL document CHEMBL2046302
